system: NCI-H460 tumor-bearing mice (lung cancer); assay: Biodistribution: lutetium accumulation in tumor, plasma and healthy tissues by ICP-MS; format: in vivo; details: 0.5 mg/kg lutetium conjugate; H460 tumor; 72 h
The entries below come with measured % ID/g uptake, H460 tumor, 72 h values attached.

COMPOUND	SUBJECT OF TEST	% ID/g uptake, H460 tumor, 72 h, % ID/g
CCNC(=O)c1nnc(-c2cc(C(C)C)c(O)cc2O)n1-c1ccc(CN2CCN(C(=O)CCNC(=O)[C@@H](CCC(=O)N3CCN(Cc4ccc(-n5c(C(=O)NCC)nnc5-c5cc(C(C)C)c(O)cc5O)cc4)CC3)NC(=O)CCNC(=O)[C@@H](CCC(=O)O)NC(=O)[C@@H](CCC(=O)O)NC(=O)[C@@H](CCC(=O)O)NC(=O)COCCOCCNC(=O)[C@H](Cc3ccccc3)NC(=O)CNC(=O)CNC(=O)CC[C@H](C(=O)O)N3CCN4CCN5CCN(CC3)CC(=O)[O][Lu]([O]C(=O)C5)[O]C(=O)C4)CC2)cc1 [T8]	NCI-H460 tumor-bearing mice (lung cancer)	0.44
CCNC(=O)c1nnc(-c2cc(C(C)C)c(O)cc2O)n1-c1ccc2c(ccn2CCC2CCN(C(=O)CCNC(=O)[C@@H](CCC(=O)O)NC(=O)[C@@H](CCC(=O)O)NC(=O)[C@@H](CCC(=O)O)NC(=O)COCCOCCNC(=O)[C@H](CCCCNC(=O)CC[C@H](C(=O)O)N3CCN4CCN5CCN(CC3)CC(=O)[O][Lu]([O]C(=O)C5)[O]C(=O)C4)NC(=O)CCCc3ccc(I)cc3)CC2)c1 [T7]	NCI-H460 tumor-bearing mice (lung cancer)	4.05
CCNC(=O)c1nnc(-c2cc(C(C)C)c(O)cc2O)n1-c1ccc(CN2CCN(C(=O)CCNC(=O)[C@@H](CCC(=O)N3CCN(Cc4ccc(-n5c(C(=O)NCC)nnc5-c5cc(C(C)C)c(O)cc5O)cc4)CC3)NC(=O)CCNC(=O)[C@@H](CCC(=O)O)NC(=O)[C@@H](CCC(=O)O)NC(=O)[C@@H](CCC(=O)O)NC(=O)COCCOCCNC(=O)CC[C@H](C(=O)O)N3CCN4CCN5CCN(CC3)CC(=O)[O][Lu]([O]C(=O)C5)[O]C(=O)C4)CC2)cc1 [T4]	NCI-H460 tumor-bearing mice (lung cancer)	2.19
